Could you please report measured DC50 for the items listed next?
Target: AR (Homo sapiens)
Construct: endogenous in cells; host or cells: VCaP cells
Assay: VCAP AR Degradation Assay
Format: cell-based
Conditions: class symbols A-C, read-out: DC50

Give its DC50 value. Item: CCc1cc(N2C(=S)N(c3ccc(C#N)c(C(F)(F)F)c3)C(=O)C2(C)C)ccc1CCCN1CCN(CC(=O)Nc2cc(F)cc(NC3CCC(=O)NC3=O)c2)CC1 (stereo not shown)
< 100 nM

Need DC50 of CCc1cc(N2C(=S)N(c3ccc(C#N)c(C(F)(F)F)c3)C(=O)C2(C)C)ccc1OCCN1C[C@@H](C)N(CC(=O)Nc2cc(C#N)cc(NC3CCC(=O)NC3=O)c2)[C@@H](C)C1 (stereo partly shown) , thanks.
< 100 nM

So what does the record say about DC50 for CC(C)c1cc(N2C(=S)N(c3cnc(C#N)c(C(F)(F)F)c3)C(=O)C23CCC3)ccc1OCCN1C[C@@H](C)N(CC(=O)Nc2cccc(NC3CCC(=O)NC3=O)c2)[C@@H](C)C1 (stereo partly shown) ?
< 100 nM

What value of DC50 has been reported for the following molecule? CCc1cc(N2C(=S)N(c3cnc(C#N)c(C(F)(F)F)c3)C(=O)C2(C)C)ccc1OCCN1CCN([C@@H](C)C(=O)Nc2cccc(NC3CCC(=O)NC3=O)c2)CC1 (stereo partly shown)
< 100 nM

Fill blank: measured DC50 of the molecule CCc1cc(N2C(=S)N(c3ccc(C#N)c(C(F)(F)F)c3)C(=O)C2(C)C)ccc1OCCN1CCN(CC(=O)Nc2cccc(NC3CCC(=O)NC3=O)c2)[C@H](CO)C1 (stereo partly shown) is ____.
500 to 1000 nM

May I ask what DC50 has been recorded for CCc1cc(N2C(=S)N(c3ccc(C#N)c(C(F)(F)F)c3)C(=O)C23CCC3)ccc1OCCN1CCN(CC(=O)Nc2cc(Cl)cc(NC3CCC(=O)NC3=O)c2)[C@H](C)C1 (stereo partly shown) ?
< 100 nM

Suppose we examine the molecule CCc1c(OCCN2C[C@@H](C)N(CC(=O)Nc3cccc(NC4CCC(=O)NC4=O)c3)[C@@H](C)C2)ccc(N2C(=S)N(c3ccc(C#N)c(C(F)(F)F)c3)C(=O)C2(C)C)c1F (stereo partly shown) ; what DC50 value has been reported?
< 100 nM

What does the record list as DC50 for CCc1cc(N2C(=S)N(c3ccc(C#N)c(C(F)(F)F)c3)C(=O)C2(C)C)ccc1OCCN1CC2CCC(C1)N2CC(=O)Nc1cccc(NC2CCC(=O)NC2=O)c1 (stereo not shown) ?
100 to 500 nM

So what does the record say about DC50 for CCc1cc(N2C(=S)N(c3ccc(C#N)c(C(F)(F)F)c3)C(=O)C2(C)C)cc(C)c1OCCN1C[C@@H](C)N(CC(=O)Nc2cccc(NC3CCC(=O)NC3=O)c2)[C@@H](C)C1 (stereo partly shown) ?
100 to 500 nM

For CC(F)(F)c1cc(N2C(=S)N(c3cnc(C#N)c(C(F)(F)F)c3)C(=O)C2(C)C)ccc1OCCN1CCN(CC(=O)Nc2cc(NC3CCC(=O)NC3=O)cc(F)c2F)CC1 (stereo not shown) , what is its reported DC50?
< 100 nM

* * *

Target: AR (Homo sapiens)
Construct: endogenous in cells; host or cells: VCaP cells
Sequence (P10275 1-920): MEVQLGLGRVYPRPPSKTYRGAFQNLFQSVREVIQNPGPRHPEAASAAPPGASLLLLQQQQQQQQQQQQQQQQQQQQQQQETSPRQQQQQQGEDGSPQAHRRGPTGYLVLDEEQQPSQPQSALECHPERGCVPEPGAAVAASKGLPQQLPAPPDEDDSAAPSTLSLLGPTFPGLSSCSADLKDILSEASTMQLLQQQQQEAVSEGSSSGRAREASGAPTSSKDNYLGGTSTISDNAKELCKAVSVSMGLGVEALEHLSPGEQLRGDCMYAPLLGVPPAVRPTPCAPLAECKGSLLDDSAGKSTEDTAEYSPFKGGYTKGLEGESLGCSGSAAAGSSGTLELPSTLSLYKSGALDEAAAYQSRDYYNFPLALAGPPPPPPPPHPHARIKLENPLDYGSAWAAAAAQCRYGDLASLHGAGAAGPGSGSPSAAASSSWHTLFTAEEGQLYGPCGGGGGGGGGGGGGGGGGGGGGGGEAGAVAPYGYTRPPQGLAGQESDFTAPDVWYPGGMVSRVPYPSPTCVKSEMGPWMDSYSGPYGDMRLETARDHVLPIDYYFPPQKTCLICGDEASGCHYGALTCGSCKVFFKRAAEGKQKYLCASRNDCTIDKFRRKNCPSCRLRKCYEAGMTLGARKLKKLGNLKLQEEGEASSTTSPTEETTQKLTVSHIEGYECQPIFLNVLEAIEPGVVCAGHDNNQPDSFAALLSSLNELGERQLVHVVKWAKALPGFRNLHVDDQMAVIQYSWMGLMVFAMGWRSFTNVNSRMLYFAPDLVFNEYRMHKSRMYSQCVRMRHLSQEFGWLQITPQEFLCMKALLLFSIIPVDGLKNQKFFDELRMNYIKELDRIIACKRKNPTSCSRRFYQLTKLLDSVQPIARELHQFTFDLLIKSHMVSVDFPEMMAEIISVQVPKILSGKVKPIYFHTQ
Experiment: VCAP AR Degradation Assay
Type: cell-based
Settings: class symbols A-C, read-out: DC50
Counter-ions that a name gives are not always drawn.
Would you kindly list DC50 for each of these molecules?

Name the reported DC50 value associated with the molecule `CCc1cc(N2C(=S)N(c3ccc(C#N)c(C(F)(F)F)c3)C(=O)C2(C)C)ccc1OCCN1C[C@@H](C)N(CC(=O)Nc2cccc(N[C@H]3CCC(=O)NC3=O)c2)[C@@H](C)C1`
< 100 nM

Form field: reported DC50 of CCCc1cc(N2C(=S)N(c3ccc(C#N)c(C(F)(F)F)c3)C(=O)C2(C)C)ccc1OCCN1CCN(CC(=O)Nc2cccc(NC3CCC(=O)NC3=O)c2)CC1 (stereo not shown) [Example 34, hydrochloride]
< 100 nM

Tell me the measured DC50 of CC(C)c1cc(N2C(=S)N(c3cnc(C#N)c(C(F)(F)F)c3)C(=O)C2(C)C)ccc1OCCN1C[C@@H](C)N(CC(=O)Nc2cccc(NC3CCC(=O)NC3=O)c2)C[C@H]1C (stereo partly shown) , please.
100 to 500 nM

Value lookup for DC50; key = CC1(C)C(=O)N(c2cnc(C#N)c(C(F)(F)F)c2)C(=S)N1c1ccc(OCCN2CCN(CC(=O)Nc3cc(Cl)cc(NC4CCC(=O)NC4=O)c3)CC2)c(CC(F)F)c1 (stereo not shown)
< 100 nM

Which DC50 reading was recorded for the molecule Cc1cc(OCCN2CCN(CC(=O)Nc3cccc(NC4CCC(=O)NC4=O)c3)CC2)c(F)cc1N1C(=S)N(c2ccc(C#N)c(C(F)(F)F)c2)C(=O)C1(C)C (stereo not shown) [Example 13, hydrochloride] ?
< 100 nM

Consider the molecule shown here: CC(C)c1cc(N2C(=S)N(c3ccc(C#N)c(Cl)c3)C(=O)C2(C)C)ccc1OCCN1C[C@@H](C)N(CC(=O)Nc2cccc(NC3CCC(=O)NC3=O)c2)C[C@H]1C (stereo partly shown) What is its recorded DC50?
100 to 500 nM

Suppose we examine the molecule CC1(C)C(=O)N(c2cnc(C#N)c(C(F)(F)F)c2)C(=S)N1c1ccc(OCCN2CCN(CC(=O)Nc3cc(Cl)cc(NC4CCC(=O)NC4=O)c3)CC2)c(C2CC2)c1 (stereo not shown) ; what DC50 value has been reported?
< 100 nM

May I ask what DC50 has been recorded for CC(C)c1cc(N2C(=S)N(c3cnc(C#N)c(C(F)(F)F)c3)C(=O)C2(C)C)ccc1OCCN1C[C@@H](C)N(CC(=O)Nc2cc(Cl)cc(NC3CCC(=O)NC3=O)c2)C[C@H]1C (stereo partly shown) ?
100 to 500 nM

Could you share which DC50 value was measured for CCc1cc(N2C(=S)N(c3cnc(C#N)c(C(F)(F)F)c3)C(=O)C2(C)C)ccc1OCCN1C[C@H]2C[C@@H]1CN2CC(=O)Nc1cc(Cl)cc(NC2CCC(=O)NC2=O)c1 (stereo partly shown) ?
100 to 500 nM

// query DC50 value for entry CCC(C)c1cc(N2C(=S)N(c3cnc(C#N)c(C(F)(F)F)c3)C(=O)C2(C)C)ccc1OCCN1CCN(CC(=O)Nc2cccc(NC3CCC(=O)NC3=O)c2)CC1 (stereo not shown) [Example 37, hydrochloride]
500 to 1000 nM

Recorded values, source patent US12404241B2.
